System: HeLa
Test protocol: HeLa toxicity: nuclei-count effect normalised to DMSO (DMSO = 0); higher = more features changed / larger toxic effect
Condition: incubation time: 24h incubation; 9.99 µM
Where a name gives a salt, the structure may show the parent alone.
Property measured: HeLa toxicity: nuclei-count effect normalised (%)

Compound | Result value
C[C@@H]1O[C@@H](O[C@H]2C[C@@H](O)[C@]3(CO)[C@H]4[C@H](O)C[C@]5(C)[C@@H](C6=CC(=O)OC6)CC[C@]5(O)[C@@H]4CC[C@]3(O)C2)[C@H](O)[C@H](O)[C@H]1O | 72.1
Cc1[nH]c(/C=C2\C(=O)Nc3ccc(S(=O)(=O)Cc4c(Cl)cccc4Cl)cc32)c(C)c1C(=O)N1CCC[C@@H]1CN1CCCC1 | 94.7
CC(C)Cn1c(=O)n(C)c(=O)c2[nH]cnc21 | 3.07
COc1cc2c(cc1OC)-c1c/c(=N\c3c(C)cc(C)cc3C)n(C)c(=O)n1CC2 [Trequinsin hydrochloride] | -1.54
CNC(=O)c1ccccc1Nc1nc(Nc2ccc(N3CCOCC3)cc2OC)ncc1Cl | 45.5
CC(C)C(C(=O)OC(C#N)c1cccc(Oc2ccccc2)c1)c1ccc(Cl)cc1 (centres undefined) [Fenvalerate] | 8.15
CO[C@H]1[C@@H](OC)C[C@H](C)[C@@H](OC)C2=CC(=O)C=C(NC(=O)/C(C)=C/C=C/[C@H](OC)[C@@H](OC(N)=O)/C(C)=C/[C@@H]1C)C2=O | 23.2
OCCN(CCO)c1nc(N2CCCCC2)c2nc(N(CCO)CCO)nc(N3CCCCC3)c2n1 | 3.21
NC(=O)Nc1cc(-c2cccc(F)c2)sc1C(=O)N[C@H]1CCCNC1 [AZD 7762 hydrochloride] | 80.1
CCCCCCOC(=O)[C@]1(O)C[C@@H]2O[C@@]1(C)n1c3ccccc3c3c4c(c5c6ccccc6n2c5c31)C(=O)NC4 | -2.2
N=C(N)Nc1nc2ccccc2[nH]1 | 1.07
Cc1sc2c(c1C)C(c1ccc(Cl)cc1)=N[C@@H](CC(=O)OC(C)(C)C)c1nnc(C)n1-2 | 16.3
COc1ccc2nc([S@@+]([O-])Cc3ncc(C)c(OC)c3C)[nH]c2c1 | -3.81
CC(C)c1ccc2c(c1)CC[C@H]1[C@](C)(CN)CCC[C@]21C [Leelamine hydrochloride] | 88.2

====

System: HepG2
Test protocol: HepG2 toxicity (resazurin), effect normalised to DMSO (DMSO = 0); higher = more features changed / larger toxic effect
Condition: incubation time: 70h incubation; 10 µM
As shown below, each of these compounds has a reported HepG2 toxicity value.

Compound | Unit spec | HepG2 toxicity
O=c1sn(-c2cccc3ccccc23)c(=O)n1Cc1ccccc1 [Tideglusib] | % | -4.62
COc1cn(-c2ccc(-n3cccn3)cc2F)nc(-c2ccnn2-c2ccccc2)c1=O [Tak-063] | % | -4.05
Cc1ccc(S(=O)(=O)c2ccc([N+](=O)[O-])o2)cc1 | % | 103
COC(=O)c1c(C)[nH]c(C)c1C(=O)c1ccccc1Cc1ccccc1 | % | -4.33
COc1cc(C)c2c(Oc3cccc(C(F)(F)F)c3)c(OC)cc(NC(C)CCCN)c2n1 (stereo not given) [Tafenoquine] | % | 103

====

Test system: human spermatozoa
Test protocol: change in acrosome-reacted (PNA+) sperm vs DMSO, no agonist (capacitating); higher = more of the measured sperm population than DMSO, for viability, fewer PI-positive (dead) cells than DMSO
Condition: incubation time: 3h, 9.99 µM
Where a name gives a salt, the structure may show the parent alone.
As shown below, each of these compounds has a reported change in acrosome-reacted value.

Compound | change in acrosome-reacted, %
CCOc1ccccc1OCCN[C@H](C)Cc1ccc(OC)c(S(N)(=O)=O)c1 [Tamsulosin] | 0.811
COc1cc2nc(N(C)CCCNC(=O)C3CCCO3)nc(N)c2cc1OC (stereo not given) [Alfuzosin] | -0.201
O=c1c(-c2ccc(O)cc2)coc2cc(O)cc(O)c12 [Genistein] | 1.12
CC(C)Cn1cnc2c(N)nc3ccccc3c21 [Imiquimod] | 1.03
OCCN(CCO)c1nc(N2CCCCC2)c2nc(N(CCO)CCO)nc(N3CCCCC3)c2n1 [Dipyridamole] | 1.09
C[C@]1(O)C[C@@H](c2nc(-c3ccc4ccc(-c5ccccc5)nc4c3)c3c(N)nccn32)C1 [Linsitinib] | 1.26
Cc1ccc(S(=O)(=O)c2ccc([N+](=O)[O-])o2)cc1 | 3.49
CCS(=O)(=O)Nc1ccc2c(c1)/C(=C(/Nc1ccc(CN3CCCCC3)cc1)c1ccccc1)C(=O)N2 [Hesperadin hydrochloride] | 0.15
NC(=O)c1cc(-c2ccc(S(=O)(=O)[C@H]3CC[C@H](Nc4ccc(C(F)(F)F)cn4)CC3)cc2)ccn1 [CCR6 inhibitor 1] | 0.47
Oc1c(Cl)cc(Cl)cc1Sc1cc(Cl)cc(Cl)c1O [Bithionol] | 0.572
CN(c1ccccc1CNc1nc(Nc2ccc3c(c2)CC(=O)N3)ncc1C(F)(F)F)S(C)(=O)=O | 0.291
CC(C)(C)c1ccc(S(=O)(=O)Nc2ccc(OC(F)(F)F)c(F)c2-c2ccc(C(=O)O)c3ncccc23)cc1F [CCR6 inhibitor] | 0.627
CCOc1ccc(-c2nc(-c3cccc4c3CCC4NCCO)no2)cc1OCC (stereo not given) [CYM 5442 hydrchloride] | 2.58
CNc1ccc2oc(C[C@H]3O[C@@]4(CC[C@H]3C)O[C@H]([C@H](C)C(=O)c3ccc[nH]3)[C@H](C)C[C@H]4C)nc2c1C(=O)O | 45.3
Cc1[nH]c(/C=C2\C(=O)Nc3ccc(S(=O)(=O)Cc4c(Cl)cccc4Cl)cc32)c(C)c1C(=O)N1CCC[C@@H]1CN1CCCC1 | 3.55

====

Tested on: HeLa
Test protocol: HeLa toxicity: nuclei-count effect normalised to DMSO (DMSO = 0); higher = more features changed / larger toxic effect
Condition: incubation time: 24h incubation; 29.9 µM
Counter-ions that a name gives are not always drawn.
Property measured: HeLa toxicity: nuclei-count effect normalised (%)

Compound | Result value
C[C@@H]1O[C@@H](O[C@H]2C[C@@H](O)[C@]3(CO)[C@H]4[C@H](O)C[C@]5(C)[C@@H](C6=CC(=O)OC6)CC[C@]5(O)[C@@H]4CC[C@]3(O)C2)[C@H](O)[C@H](O)[C@H]1O | 70.1
COc1cc2c(cc1OC)-c1c/c(=N\c3c(C)cc(C)cc3C)n(C)c(=O)n1CC2 [Trequinsin hydrochloride] | 27.5
CCOCc1nc2c(N)nc3ccccc3c2n1CC(C)(C)O | 0.735
COc1ccc2nc([S@@+]([O-])Cc3ncc(C)c(OC)c3C)[nH]c2c1 | -3.61
O=c1sn(-c2cccc3ccccc23)c(=O)n1Cc1ccccc1 | 7.35
Nc1ccc(-c2ccc3ncc4ccc(=O)n(-c5cccc(C(F)(F)F)c5)c4c3c2)cn1 | 96.5
CN(c1ccccc1CNc1nc(Nc2ccc3c(c2)CC(=O)N3)ncc1C(F)(F)F)S(C)(=O)=O | 90.7

====

As shown below, each of these compounds has a reported HepG2 toxicity value.
Test system: HepG2
Test protocol: HepG2 toxicity (resazurin), effect normalised to DMSO (DMSO = 0); higher = more features changed / larger toxic effect
Condition: incubation time: 70h incubation; 10 µM
Structures can show the parent of a compound that is named as a salt.

Compound | HepG2 toxicity
COc1cc(SC)ccc1C(=O)N1CCC(Cc2ccccc2)CC1 | 9.25%
N=C(N)Nc1nc(-c2ccc(Cl)cc2)cs1 [n-[4-(4-Chlorophenyl)-1,3-thiazol-2-yl]guanidine] | 3.6%
Oc1c(Cl)cc(Cl)c(Cl)c1Cc1c(O)c(Cl)cc(Cl)c1Cl | 56.3%
Cc1sc2c(c1C)C(c1ccc(Cl)cc1)=N[C@@H](CC(=O)OC(C)(C)C)c1nnc(C)n1-2 | 56.3%
N=C(N)Nc1ccc(C(=O)Oc2ccc3cc(C(=N)N)ccc3c2)cc1 | -7.68%
CO[C@H]1[C@@H](OC)C[C@H](C)[C@@H](OC)C2=CC(=O)C=C(NC(=O)/C(C)=C/C=C/[C@H](OC)[C@@H](OC(N)=O)/C(C)=C/[C@@H]1C)C2=O | 101%
CC(C)Cn1c(=O)n(C)c(=O)c2[nH]cnc21 | 7.96%
CCCCC(CC)C/N=C(\N)N/C(N)=N/CCCCCC/N=C(\N)N/C(N)=N/CC(CC)CCCC (stereo not given) [Alexidine dihydrochloride] | 89.8%
CC(C)(C)c1ccc(S(=O)(=O)Nc2cnc3[nH]c(C(=O)N[C@H]4CCC[C@H]4O)c(-c4ccccc4)c3c2)cc1 | 3.81%
Clc1ccc(C(OCCN2CCCCC2)c2ccccc2)cc1 (stereo not given) [Cloperastine hydrochloride] | 7.17%
CC(C)Cn1cnc2c(N)nc3ccccc3c21 | 10.2%
O=S(=O)(NCCNC/C=C/c1ccc(Br)cc1)c1cccc2cnccc12 [H 89 dihydrochloride] | -3.98%
C[C@]1(O)C[C@@H](c2nc(-c3ccc4ccc(-c5ccccc5)nc4c3)c3c(N)nccn32)C1 | -2.88%
CCOCc1nc2c(N)nc3ccccc3c2n1CC(C)(C)O | 12.3%
CC(C)(C)c1ccc(S(=O)(=O)Nc2ccc(OC(F)(F)F)c(F)c2-c2ccc(C(=O)O)c3ncccc23)cc1F | 2.54%
